# Tested on: Serratia marcescens
# methodDescription: Antibacterial activity against Serratia marcescens 41002
# Assay type: functional
measuredQuantity: MIC (µg/mL)
Numeric answer only, unit µg/mL assumed.

Suppose we examine the compound CO/N=C1\CCN(c2c(F)cc3c(=O)c(C(=O)O)cn(C4CC4)c3c2F)CC1CN (racemic) ; what MIC value has been reported?
4

Suppose we examine the compound CCO/N=C1\CCN(c2c(F)cc3c(=O)c(C(=O)O)cn(C4CC4)c3c2F)CC1CN (racemic) ; what MIC value has been reported?
4

Suppose we examine the compound CO/N=C1\CCN(c2nc3c(cc2F)c(=O)c(C(=O)O)cn3-c2ccc(F)cc2F)CC1CN (racemic) ; what MIC value has been reported?
8

Suppose we examine the compound CCO/N=C1\CCN(c2c(F)cc3c(=O)c(C(=O)O)cn(C4CC4)c3c2OC)CC1CN (racemic) ; what MIC value has been reported?
32

###

# Tested on: Pseudomonas aeruginosa
# methodDescription: Antibacterial activity against Pseudomonas aeruginosa 17
# Assay type: functional
measuredQuantity: log10 MIC (log10 of the value in µg/mL)
Would you kindly interpret these values as log10 of MIC expressed in µg/mL?

log10 MIC of CO/N=C1\CCN(c2c(F)cc3c(=O)c(C(=O)O)cn(C4CC4)c3c2OC)CC1CN (racemic) on Pseudomonas aeruginosa?
0.90

log10 MIC of CCn1cc(C(=O)O)c(=O)c2cc(F)c(N3CC/C(=N\OC)C(CN)C3)c(F)c21 (racemic) on Pseudomonas aeruginosa?
1.51

log10 MIC of CO/N=C1\CN(c2nc3c(cc2F)c(=O)c(C(=O)O)cn3C2CC2)CC1CN (stereo not given) on Pseudomonas aeruginosa?
1.51

log10 MIC of CCO/N=C1\CCN(c2c(F)cc3c(=O)c(C(=O)O)cn(C4CC4)c3c2OC)CC1CN (racemic) on Pseudomonas aeruginosa?
1.51

log10 MIC of O=C(O)c1cn(C2CC2)c2cc(N3CCNCC3)c(F)cc2c1=O on Pseudomonas aeruginosa?
1.20

log10 MIC of CCO/N=C1\CCN(c2c(F)cc3c(=O)c(C(=O)O)cn(CC)c3c2F)CC1CN (racemic) on Pseudomonas aeruginosa?
2.11

log10 MIC of CCO/N=C1\CCN(c2c(F)cc3c(=O)c(C(=O)O)cn(C4CC4)c3c2F)CC1CN (racemic) on Pseudomonas aeruginosa?
1.20

log10 MIC of CCO/N=C1\CCN(c2c(F)cc3c(=O)c(C(=O)O)cn(C4CC4)c3c2OC(F)F)CC1CN (racemic) on Pseudomonas aeruginosa?
1.20

log10 MIC of CCO/N=C1\CCN(c2c(F)cc3c(=O)c(C(=O)O)cn(CCF)c3c2F)CC1CN (racemic) on Pseudomonas aeruginosa?
1.81

log10 MIC of CO/N=C1\CCN(c2c(F)cc3c(=O)c(C(=O)O)cn(C4CC4)c3c2OC(F)F)CC1CN (racemic) on Pseudomonas aeruginosa?
0.90

log10 MIC of CO/N=C1\CCN(c2nc3c(cc2F)c(=O)c(C(=O)O)cn3-c2ccc(F)cc2F)CC1CN (racemic) on Pseudomonas aeruginosa?
0.60

log10 MIC of CO/N=C1\CCN(c2c(F)cc3c(=O)c(C(=O)O)cn(CCF)c3c2F)CC1CN (racemic) on Pseudomonas aeruginosa?
1.51

log10 MIC of CCO/N=C1\CCN(c2nc3c(cc2F)c(=O)c(C(=O)O)cn3-c2ccc(F)cc2F)CC1CN (racemic) on Pseudomonas aeruginosa?
0.60

log10 MIC of CO/N=C1\CCN(c2c(F)cc3c(=O)c(C(=O)O)cn(C4CC4)c3c2F)CC1CN (racemic) on Pseudomonas aeruginosa?
0.90

log10 MIC of C[C@H]1COc2c(N3CCN(C)CC3)c(F)cc3c(=O)c(C(=O)O)cn1c23.C[C@H]1COc2c(N3CCN(C)CC3)c(F)cc3c(=O)c(C(=O)O)cn1c23.O on Pseudomonas aeruginosa?
0.90
